- test protocol: plasma pharmacokinetics after IV administration
- Type: in vivo, Male CD-1 mice
- condition info: male, CD-1, mouse; plasma, single IV dose 5 mg/kg
- Protocol: [drawing 435] are described below. Plasma concentrations were measured in mice after oral and IV administration. Both oral and IV doses were formulated in saline. Male CD-1 mice were dosed after an overnight fast and fed 4 hours post-dose. A single IV dose of 139 was administered to male CD-1 mice intravenously at 5 mg/kg (dose volume of 3 mL/kg). The plasma concentration of 139 was measured at 0 min, 5 min, 15 min, 30 min, 1 h, 3 h, 6 h, and 12 h time points. […]
readout: MRT

> print(dat)
                                   molecule  observed.measurement
1  CN1CCN(CCOc2ccc(-c3ccc(CC(=O)NCc4cccc(F)c4)cc3)c(F)c2)CC1                 2.3 h

* * *

- test protocol: plasma pharmacokinetics after oral administration
- Type: in vivo, Male CD-1 mice
- condition info: male, CD-1, mouse, single oral dose 25 mg/kg
readout: AUC(0-t) (ng·h/mL)

> print(dat)
                                   molecule  observed.measurement
1  CN1CCN(CCOc2ccc(-c3ccc(CC(=O)NCc4cccc(F)c4)cc3)c(F)c2)CC1                  2300
